Assay: binders of probe aFSTL3 on microarray, primary screen, stem cell growth factor project, biochemical, small-molecule microarray, fluorescence 635/667 (AID 1064);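 note: measures binding of the biotinylated anti-FSTL3 antibody to printed compounds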
Conditions: higher = more signal
readout.label: composite z-score
Give a plain numeric answer without units written out.

Sample records with composite z-score:
compound	readout.label	observed.result
O=C1C2C=CC(C(O)CCc3ccccc3)N(Nc3ccccc3F)C2C(=O)N1c1ccccc1 (stereo not given)	composite z-score	-0.114
COC(=O)[C@@]1(Cc2ccc(F)cc2)[C@H]2c3cc(C(=O)N(C)C)n(Cc4ccc(Cl)c(C(F)(F)F)c4)c3C[C@H]2CN1C(=O)c1ccccc1	composite z-score	1.15

Would you mind telling me what composite z-score value was observed for `O=C1O[C@@H](c2ccccc2)[C@@H](c2ccccc2)N2[C@@H](c3ccccc3OCCO)[C@]3(C(=O)Nc4ccc(C#CC5=CCCCC5)cc43)[C@@H](C(=O)N3CCCCCCC3)[C@H]12` ?
3.71

And then `C=CC[C@]1(C(=O)NCc2ccccc2)N=C(c2ccc(OCCCO)cc2)O[C@H]1c1ccccc1N=[N+]=[N-]` , what is it?
-0.158

And then `COCCOC(=O)N1C(=O)[C@@]2(c3ccccc31)[C@H](c1ccccc1OCCO)N1[C@H](c3ccccc3)[C@H](c3ccccc3)OC(=O)[C@H]1[C@@H]2C(=O)N1CCN(c2ncccn2)CC1` , what is it?
0.0686

* * *

Target: NADPH oxidase 2 (Homo sapiens) (UniProt P04839)
Sequence (P04839 whole entry, looked up): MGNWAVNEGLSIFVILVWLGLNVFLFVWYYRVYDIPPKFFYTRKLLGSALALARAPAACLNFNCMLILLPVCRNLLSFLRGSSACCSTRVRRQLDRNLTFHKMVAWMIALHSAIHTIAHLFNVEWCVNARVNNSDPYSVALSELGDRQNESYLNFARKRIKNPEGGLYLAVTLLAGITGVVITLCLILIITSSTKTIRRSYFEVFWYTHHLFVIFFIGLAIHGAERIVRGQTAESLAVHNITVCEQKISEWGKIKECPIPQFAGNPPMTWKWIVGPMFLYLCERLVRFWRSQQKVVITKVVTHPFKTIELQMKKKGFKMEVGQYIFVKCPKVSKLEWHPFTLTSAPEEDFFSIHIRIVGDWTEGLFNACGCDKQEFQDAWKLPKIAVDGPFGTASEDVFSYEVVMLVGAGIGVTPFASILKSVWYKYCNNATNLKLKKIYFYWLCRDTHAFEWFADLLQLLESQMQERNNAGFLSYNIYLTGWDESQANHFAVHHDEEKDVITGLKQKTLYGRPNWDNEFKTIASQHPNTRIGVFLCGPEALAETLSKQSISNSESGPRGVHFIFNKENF
Test: NOX2-dependent H2O2 signal modulators, primary screen, NOX inhibitor project, cell-based, HEK293-NOX2, PMA-stimulated, Amplex Red fluorescence (AID 1159); note: test concentration not given here
Conditions: 45 min, higher = more signal, called active from +8 up or from −8 down
readout.label: z-score
Give a plain numeric answer without units written out.

Sample records with z-score:
compound	z-score
O=C1c2ccccc2[C@](Cc2ccccc2I)(C(=O)NCCN2CCOCC2)[C@H](c2ccc(CO)cc2)N1C1CCCCC1	0.155
CC(C)[Si](C#Cc1ccc(Oc2ccccc2)cc1)(O[Si](C#Cc1ccc(Oc2ccccc2)cc1)(C(C)C)C(C)C)C(C)C	1.49
COCCCNC(=O)[C@@]1(C)c2ccccc2C(=O)N(C(C)C)[C@H]1c1ccc(CO)cc1	-0.636

Would you mind telling me what z-score value was observed for C=C(C)[C@@H]1CC=C(C(O)C2C=CC3C(=O)N(c4ccccc4)C(=O)C3N2Nc2ccccc2)CC1 (stereo partly specified) ?
-0.653

And then COc1ccc(C(O)C2C=CC3C(=O)N(Cc4ccccc4)C(=O)C3N2n2cnnc2)cc1OCc1ccccc1 (stereo unspecified) , what is it?
-0.361

* * *

Assay: mitochondrial membrane potential change in A549 cells, profiling panel, cell-based, JC-1 fluorescence, basal, 24 h, 100 nL (AID 1138);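 note: A549 lung adenocarcinoma cells under basal conditions with no added stimulus; test concentration not given here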
Settings: higher = more signal
Measured z-score of individual entries

Sample records with z-score:
molecule	z-score
CNS(=O)(=O)c1ccc(C)cc1	1.55
CC1(C)[C@@H]2CC(C(O)C3C=CC4C(=O)N(c5ccccc5)C(=O)C4N3Nc3ccc([N+](=O)[O-])cc3)=C[C@H]1C2 (some centres not stated)	-1.25
CC(C)=CCN[C@H](CO)c1ccccc1	-0.989

Would you mind telling me what z-score value was observed for `COc1cc2c(cc1OC)CN(C(=O)[C@H]1[C@@H]3C(=O)O[C@@H](c4ccccc4)[C@@H](c4ccccc4)N3[C@@H](c3ccc(O)cc3)[C@]13C(=O)Nc1ccccc13)CC2` ?
-0.517

And then CC(CO)N1C(=O)[C@@H]2C3C(=O)OCCC/C=C\[C@H]3OC23C=CCN(C(C)(C)C)C(=O)[C@@H]13 (some centres not stated) , what is it?
-0.0344

And then CC(C)C[C@@H]1NC(=O)[C@H](C(C)C)NC(=O)[C@@]23C(=O)N[C@@H](Cc4ccccc4)C2[C@H](C)[C@@]2(C)O[C@H]2C3/C=C/CC/C=C/CNC1=O (some centres not stated) , what is it?
0.276

And then `COC(=O)[C@@]1(Cc2ccccc2)[C@H]2c3cc(C(=O)N4CCCC4)n(Cc4ccc(S(C)(=O)=O)cc4)c3C[C@H]2CN1C(=O)c1ccccc1` , what is it?
0.687
